Biological target: T1, human CD4 on human PBMCs (human, UniProt P01730 26-458)
T1 construct: whole, on cells; the CD4-positive gate was set with the control antibodies OKT4 and RPA-T4; also called hCD4
Experiment: FACS, clonal hybridoma supernatant on human PBMCs
measurementLabel: % CD4 Stain (%)

1. 75110_12K21A (antibody, V domains shown, Tested as clonal hybridoma supernatant from AlivaMab Mouse Kappa mice: human variable regions, human kappa, mouse Fc) VH: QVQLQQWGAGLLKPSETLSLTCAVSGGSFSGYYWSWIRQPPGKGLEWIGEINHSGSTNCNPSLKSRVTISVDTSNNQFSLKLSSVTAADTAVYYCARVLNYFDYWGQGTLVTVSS VL: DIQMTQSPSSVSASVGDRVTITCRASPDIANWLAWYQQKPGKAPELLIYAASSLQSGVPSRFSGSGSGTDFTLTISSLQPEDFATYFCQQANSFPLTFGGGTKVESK	37.2
2. 75110_12H19A (antibody, V domains shown, Tested as clonal hybridoma supernatant from AlivaMab Mouse Kappa mice: human variable regions, human kappa, mouse Fc) VH: EVQLVESGGGLVQPGGSLRLSCAASGFTFSSYWMSWVRQAPGQGLEWVANINEDGNEKYHVDSVKGRLTISRDNAKNSLYLQMNSLRGVDTAVYFCAREGGQWLALDYWGQGALVTVSS VL: DIQMTQSPSSVSASVGDRVSITCRASQGISSWLAWYQQKPGKAPKLLIYGASGLQSGVPSRFSGSGSGTDFTLTISSLQPEDFATYYCQQANSFPWTFGQGTKVEIK	36.8
3. 75110_11D03A (antibody, V domains shown, Tested as clonal hybridoma supernatant from AlivaMab Mouse Kappa mice: human variable regions, human kappa, mouse Fc) VH: EVQLVESGGGLVQPGGSLRLSCAASGFTFSSYWMSWVRQAPGKGLEWVANINQDGNEKYYVDSVKGRFTISRDNAKNSLFLQMNSLRAEDTAVYYCAREGGQWLALDYWGQGALVTVSS VL: DIQMTQSPSSVSASVGDRVTITCRASQGISSWLAWYQQKPGKAPKFLISGASSLQSGVPSRFSGSGSGTDFTLTISSLQPEDFATYYCQQANSFPWTFGQGTKVEIK	30.1
4. 75110_14I16A (antibody, V domains shown, Tested as clonal hybridoma supernatant from AlivaMab Mouse Kappa mice: human variable regions, human kappa, mouse Fc; also called 75110_14116A) VH: QVQLQESGPGLVKPSETLSLTCTVSNGSISSYYWSWIRQSAGKGLEWIGRIYTSGSTNYNPSLKSRVTMLVDTSKNQFSLKLSSVTAADTAVYYCARDREDYYYYGMDVWGQGTTVTVSS VL: DIQMTQSPSSLSASVGDRVTITCQASHDISNYLNWYQQKPGKAPKLLLYYASNLETGVPSRFSGSGSGTDFTFTITSLQPEDIGTYSCQQYDNLPLTFGGGTKVEIK	33.2
5. 75110_13C13A (antibody, V domains shown, Tested as clonal hybridoma supernatant from AlivaMab Mouse Kappa mice: human variable regions, human kappa, mouse Fc) VH: QVQLQQWGAGLLKPSETLSLTCAVSGGSFSGYYWSWIRQPPGKGLEWIGEINHSGSTNCNPSLKSRVTISVDTSKNQFSLKLSSVTAADTAMYYCARVLNFFDYWGQGTLVTVSS VL: DIQMTQTPSSVSASVGDRVTITCRASPGISNWLAWYQQKPGKAPELLIYAASSLQSGVPSRFSGSGSGTDFTLTISSLQPEDFATYFCQQANSFPLTFGGGTKVESK	28.6
6. 75110_12H17A (antibody, V domains shown, Tested as clonal hybridoma supernatant from AlivaMab Mouse Kappa mice: human variable regions, human kappa, mouse Fc) VH: EVQLVESGGGLVQPGGSLRLSCAASGFTFSDYWMSWVRQAPGKGLEWVANIKEDGNEKYYVDSVKGRFTISRDNAKNSLFLQMNSLRAEDTAVYYCAREGGQWLALDYWGQGALVTVSS VL: DIQMTQSPSSVSASVGDRVTITCRASQGISSWLAWYQQKPGKAPKFLISGASSLQSGVPSRFTGSGSGTDFTLTISSLQPEDFATYYCQQANSFPWTFGQGTKVEIK	37.3
